The values you see were collected from a melting point compilation (Tetko et al.; mined from patent text by program, amines drawn as free bases though some values may be those of a salt).

Non-standard residues stand in square brackets, D forms with d. Residues, ends and D or L forms follow the SMILES beside them. ξ: configuration not given here. *: point of attachment. Boc = CC(C)(C)OC(=O)*; ξA = CC(N)C(=O)O; NHNH2 = NN*
Kindly supply the reported melting point values for the records listed here.

Measured melting point, CN1CCc2cc(S(=O)(=O)NC(=O)Nc3ccc(Cl)cc3)ccc21 : 145 to 147 °C

So, CCN(Cc1cc(Br)ccc1NCc1ccccc1)c1ccc(C(N)=O)nn1 ? Its melting point was 160 to 162 °C

Summary for this compound, O=C(O)c1cc(OCC(F)(F)F)cc(Oc2cccc(C(F)(F)F)c2)n1 : melting point is 93 to 95 °C

Measured melting point, COc1ccc2c(C(=O)O)cc3cc4c(cc3c2c1)OCO4 : 293 to 295 °C

Field melting point (entry CC(C)(CC(O)(C(=O)O)C(F)(F)F)c1ccc(C(N)=O)cc1 (stereo unspecified) ) reads 244 to 245 °C

The compound listed as CC(=O)SC(CC(=O)c1cccc(Cl)c1)C(=O)O (stereo unspecified) has a reported melting point of 85 to 86 °C

The compound listed as CC(C)c1nc2c(c(-c3ccc(F)cc3)c1CO)CCC2(C)C shows melting point equal to 141 to 143 °C

The recorded melting point for entry O=[N+]([O-])c1ccc(SCCc2c[nH]cn2)nc1 equals 147 to 148 °C

Sure, the documented melting point for CS(=O)c1ccc(-c2cnn3c(O)ncnc23)cc1 (stereo unspecified) is 285 to 286 °C

Lab book: melting point of COc1cccc(CC(N)C(=O)O)c1OCCc1ccccc1 (racemic) noted as 180 to 182 °C

melting point reported for this compound COCCc1nc2c(N)nc3ccccc3c2n1CCCCCCCCNS(C)(=O)=O : 109 to 110 °C

For this compound ( COc1nccnc1C1=CN2CCC1CC2 ), measured melting point is 95 to 96 °C

Lab book: melting point of Cc1cc(O)c(C2CCCCC2)cc1Sc1cc(C2CCCCC2)c(O)cc1C noted as 128 to 130 °C

Short answer for C=CCC(C(=O)NC)c1ccccc1 (stereo unspecified) : melting point was 97 to 99 °C

// melting point lookup, compound = CC(=O)c1ccc(Cl)c(S(=O)(=O)N(C)C)c1 , result: 108 °C

The reported value for COc1cc2c(cc1S(=O)(=O)c1ccc(OCc3ccc(Cl)cc3)cc1)CCN(C)CC2 in terms of melting point is 120 to 122 °C

Form field melting point, entry NS(=O)(=O)c1ccccc1C(=S)N1CCCC1 : 186 to 187 °C

According to the records, this compound CC(=O)Nc1ccc2c(c1)C(CN1CC=C(c3cn(C)c4cc(Cl)ccc34)CC1)CC2 (stereo unspecified) displays melting point of 189 to 193 °C

compound CCCOC1C(O)C(CO)OC1n1cnc2c(NC(=O)C(C)C)nc(NC(=O)C(C)C)nc21 (stereo unspecified) , melting point observed: 140 to 142 °C

Notebook: Cn1ncc2c1CCCc1cn[nH]c1-2 , melting point read as 153 to 155 °C

get_value(item= CC(NC(=O)CNC(=O)CNC(=O)CNC(=O)OC(C)(C)C)C(=O)NCC(=O)NN (stereo unspecified) (Boc-GGG[ξA]G-NHNH2) , readout=melting point) returns 221 to 223 °C
